This collection of values is drawn from ChEMBL document CHEMBL1275577.

tested on: Cutibacterium acnes; experiment: Antimicrobial activity against Propionibacterium acnes by Wadsworth agar dilution method; assay type: functional
PARAMETER MEASURED: MIC50

The cases that follow already have their MIC50 on record.
NC[C@@H]1O[C@H](O[C@H]2[C@@H](O)[C@H](O[C@@H]3[C@@H](O)[C@H](N)C[C@H](N)[C@H]3O[C@H]3O[C@H](CN)[C@@H](O)[C@H](O)[C@H]3N)O[C@@H]2CO)[C@H](N)[C@@H](O)[C@@H]1O
128 µg/mL
CO[C@H]1/C=C/O[C@@]2(C)Oc3c(C)c(O)c4c(O)c(c5c(nc6cc(C)ccn65)c4c3C2=O)NC(=O)/C(C)=C\C=C\[C@H](C)[C@H](O)[C@@H](C)[C@@H](O)[C@@H](C)[C@H](OC(C)=O)[C@@H]1C
0.5 µg/mL
CC(=O)Oc1ccccc1C(=O)Nc1ncc([N+](=O)[O-])s1 [NITAZOXANIDE]
2 µg/mL

Okay, next one:
Ask: Return MIC50 measured with Cutibacterium acnes given this compound: CN[C@H](CC(C)C)C(=O)N[C@H]1C(=O)N[C@@H](CC(N)=O)C(=O)N[C@H]2C(=O)N[C@H]3C(=O)N[C@H](C(=O)N[C@H](C(=O)O)c4cc(O)cc(O)c4-c4cc3ccc4O)[C@H](O)c3ccc(c(Cl)c3)Oc3cc2cc(c3O[C@@H]2O[C@H](CO)[C@@H](O)[C@H](O)[C@H]2O[C@H]2C[C@](C)(N)[C@H](O)[C@H](C)O2)Oc2ccc(cc2Cl)[C@H]1O
Result: 1 µg/mL

----------
Each entry below carries its reported MIC50.
tested on: Lactobacillus jensenii; assay: Antimicrobial activity against Lactobacillus jensenii by Wadsworth agar dilution method; format: functional
The reply should be a number in µg/mL, with the unit left off.

The cases that follow already have their MIC50 on record.
NC[C@@H]1O[C@H](O[C@H]2[C@@H](O)[C@H](O[C@@H]3[C@@H](O)[C@H](N)C[C@H](N)[C@H]3O[C@H]3O[C@H](CN)[C@@H](O)[C@H](O)[C@H]3N)O[C@@H]2CO)[C@H](N)[C@@H](O)[C@@H]1O [FRAMYCETIN]
128
CC(=O)Oc1ccccc1C(=O)Nc1ncc([N+](=O)[O-])s1 [NITAZOXANIDE]
2
CO[C@H]1/C=C/O[C@@]2(C)Oc3c(C)c(O)c4c(O)c(c5c(nc6cc(C)ccn65)c4c3C2=O)NC(=O)/C(C)=C\C=C\[C@H](C)[C@H](O)[C@@H](C)[C@@H](O)[C@@H](C)[C@H](OC(C)=O)[C@@H]1C [RIFAXIMIN]
0.5

Okay, next one:
Ask: Would you mind telling me what MIC50 value was observed for CN[C@H](CC(C)C)C(=O)N[C@H]1C(=O)N[C@@H](CC(N)=O)C(=O)N[C@H]2C(=O)N[C@H]3C(=O)N[C@H](C(=O)N[C@H](C(=O)O)c4cc(O)cc(O)c4-c4cc3ccc4O)[C@H](O)c3ccc(c(Cl)c3)Oc3cc2cc(c3O[C@@H]2O[C@H](CO)[C@@H](O)[C@H](O)[C@H]2O[C@H]2C[C@](C)(N)[C@H](O)[C@H](C)O2)Oc2ccc(cc2Cl)[C@H]1O [VANCOMYCIN] ?
Result: 1

----------
Each entry below carries its reported MIC90.
test system: Clostridium tertium; experiment: Antimicrobial activity against Clostridium tertium by Wadsworth agar dilution method; type: functional
The reply should be a number in µg/mL, with the unit left off.

The cases that follow already have their MIC90 on record.
CC(=O)Oc1ccccc1C(=O)Nc1ncc([N+](=O)[O-])s1 [NITAZOXANIDE]
4
CN[C@H](CC(C)C)C(=O)N[C@H]1C(=O)N[C@@H](CC(N)=O)C(=O)N[C@H]2C(=O)N[C@H]3C(=O)N[C@H](C(=O)N[C@H](C(=O)O)c4cc(O)cc(O)c4-c4cc3ccc4O)[C@H](O)c3ccc(c(Cl)c3)Oc3cc2cc(c3O[C@@H]2O[C@H](CO)[C@@H](O)[C@H](O)[C@H]2O[C@H]2C[C@](C)(N)[C@H](O)[C@H](C)O2)Oc2ccc(cc2Cl)[C@H]1O
4

Okay, next one:
Ask: Would you mind telling me what MIC90 value was observed for NC[C@@H]1O[C@H](O[C@H]2[C@@H](O)[C@H](O[C@@H]3[C@@H](O)[C@H](N)C[C@H](N)[C@H]3O[C@H]3O[C@H](CN)[C@@H](O)[C@H](O)[C@H]3N)O[C@@H]2CO)[C@H](N)[C@@H](O)[C@@H]1O ?
Result: 1020
